tested on: S. typhimurium 14028; assay type: cell-based, Salmonella typhimurium; conditions: 14028, 24 h
Where no end group is shown, it is not given here.
Can you tell me MIC for the items I'm about to list?
Answers are plain numbers, in µM.

// each listed substance needs a value for MIC
1. WRRWRWRWW-NH2 [W3]
2. RWRWRRWWW-NH2 [W9]
3. RRWWWWRRW-NH2 [W7]
4. WWRWRRRWW-NH2 [W2]
5. RWRWRWRWW-NH2 [W5]

[A]
1: 4; 2: 8; 3: 8; 4: 8; 5: 4

* * *

tested on: E. coli 25922; type: cell-based, Escherichia coli; details: 25922, 24 h
Where no end group is shown, it is not given here.
reported-endpoint: MIC (µM)
One number for each entry, in µM.

RLRLRLRLL-NH2 [L5] :: 2
RRWWWRWRW-NH2 [W8] :: 4
WRRWRWWRW-NH2 [W12] :: 4
LRRLRLLRL-NH2 [L12] :: 32
RWRWRRWWW-NH2 [W9] :: 4

// each listed substance needs a value for MIC
1. WWRWRRRWW-NH2 [W2]
2. WRRRRWWWW-NH2 [W11]
3. LLRLLRRRL-NH2 [L1]

[A]
[4, 4, 8]

[Q] Requested field: MIC. Item: RRLLLRLRL-NH2 [L8]
[A] 16

* * *

system: E. coli ATCC 25922; experiment: Salt sensitivity assay (MIC); assay type: cell-based, Escherichia coli; conditions: 6 μM NH4Cl
Where no end group is shown, it is not given here.
Please assign No whenever MIC, NH4Cl is at or above 4 µM, and Yes whenever it is below.

Example cases with answers are listed next.
WWWRRRRWW-NH2 [W4] :: Yes
RLRLRRLLL-NH2 [L9] :: No
RRLLLRLRL-NH2 [L8] :: No
LLLRRRRLL-NH2 [L4] :: No
LRRRRLLLL-NH2 [L11] :: No
RRLLLLRRL-NH2 [L7] :: No
WRRRWWWWR-NH2 [W6] :: Yes
RLRLRLRLL-NH2 [L5] :: Yes
WRRRRWWWW-NH2 [W11] :: Yes

Next item in the queue.
[Q] Hi there! Is MIC, NH4Cl for RLLLLRRLR-NH2 [L10] below 4 µM, do you know?
[A] No

* * *

tested on: E. coli UB1005; assay type: cell-based, Escherichia coli; conditions: UB1005, 24 h
Where no end group is shown, it is not given here.
reported-endpoint: MIC (µM)
One number for each entry, in µM.

// below: answered substances
RWRWRRWWW-NH2 [W9] :: 4
LRRLRLLRL-NH2 [L12] :: 32
WRRRRWWWW-NH2 [W11] :: 4
LLRLLRRRL-NH2 [L1] :: 16
WRRWRWWRW-NH2 [W12] :: 4
RWWWWRRWR-NH2 [W10] :: 8

// each listed substance needs a value for MIC
1. RRWWWRWRW-NH2 [W8]
2. RLRLRLRLL-NH2 [L5]
3. WRRWRWRWW-NH2 [W3]
4. WWRWRRRWW-NH2 [W2]
5. RRWWWWRRW-NH2 [W7]
6. RRLLLRLRL-NH2 [L8]

[A]
1: 4; 2: 4; 3: 4; 4: 4; 5: 4; 6: 32

[Q] Requested field: MIC. Item: WWWRRRRWW-NH2 [W4]
[A] 8
